Where do the numbers come from? From patent US20230312524A1.

- target under test: α1A-ARS (Homo sapiens)
- method notes: Calcium flux assay (Calcium 6 dye) in cells expressing an α1-AR
- Type: cell-based
- applied conditions: read-out: Average Emax
readout label: Emax

[
  {
    "molecule": "Clc1ccc(CC2=NCCN2)c(C2CC2)c1 [Compound 65]",
    "target under test": "α1A-ARS (Homo sapiens)",
    "Emax": "> 61%"
  },
  {
    "molecule": "Cc1cc(F)ccc1CC1=NCCN1 [Compound 73]",
    "target under test": "α1A-ARS (Homo sapiens)",
    "Emax": "21 to 60%"
  },
  {
    "molecule": "c1cc(CC2=NCCN2)c2[nH]ncc2c1 [Compound 51]",
    "target under test": "α1A-ARS (Homo sapiens)",
    "Emax": "21 to 60%"
  }
]

// returns reported Emax for input FC(F)(F)c1cccc(CC2=NCCN2)c1Cl [Compound 131]
21 to 60%

// returns reported Emax for input CC(C)(C)c1cc(Cl)ccc1CC1=NCCN1 [Compound 41]
< 20%

// returns reported Emax for input FC(F)(F)c1ccc(CC2=NCCN2)c(Cl)c1 [Compound 133]
21 to 60%

// returns reported Emax for input FC(F)(F)Oc1ccc(Cl)c(CC2=NCCN2)c1 [Compound 167]
> 61%

// returns reported Emax for input Clc1cc2occc2cc1CC1=NCCN1 [Compound 53]
> 61%

// returns reported Emax for input FC(F)(F)Oc1cccc(CC2=NCCN2)c1Cl [Compound 166]
21 to 60%

// returns reported Emax for input Cc1cc(OC(F)F)ccc1CC1=NCCN1 [Compound 129]
21 to 60%

// returns reported Emax for input CC(C)C(F)(F)c1cc(Cl)ccc1CC1=NCCN1 [Compound 117]
21 to 60%

###

- target under test: UniProt:P35348
- method notes: Calcium flux assay (Calcium 6 dye) in cells expressing an α1-AR
- Assay type: cell-based
- applied conditions: calcium flux, α1A-AR; maximum effect relative to full agonist epinephrine; read-out: Average Emax
- Protocol: Calcium flux experimental design: alpha-1 adrenergic receptors (α1-ARs) couple to Gq proteins, which results in downstream activation of phospholipase C and release of calcium from intracellular stores. Intracellular calcium increase upon α1-AR activation can be detected by Calcium 6 dye. […] For each assay well, baseline Calcium 6 fluorescence was detected for 18 seconds prior to 12 μL compound addition at 12 μL per second. […]
# Emax per record follows

Solved entries (count: 5):
[
  {
    "query smiles": "Cc1csc(-c2cc(Cl)ccc2CC2=NCCN2)n1",
    "endpoint result": "21 to 60%"
  },
  {
    "query smiles": "Cc1c(CC2=NCCN2)cccc1-c1cccs1",
    "endpoint result": "< 20%"
  },
  {
    "query smiles": "Cc1c(CC2=NCCN2)cccc1-c1cc[nH]n1",
    "endpoint result": "21 to 60%"
  },
  {
    "query smiles": "Cc1cc(-c2cc(Cl)ccc2CC2=NCCN2)sn1",
    "endpoint result": "21 to 60%"
  },
  {
    "query smiles": "Cn1nccc1-c1cc(CC2=NCCN2)ccc1Cl",
    "endpoint result": "< 20%"
  }
]

# evaluate next
// returns reported Emax for input Clc1ccc(CC2=NCCN2)cc1-n1cccn1
21 to 60%

###

- target under test: α1A-ARS (Homo sapiens, UniProt P35348)
- Sequence (P35348 1-466): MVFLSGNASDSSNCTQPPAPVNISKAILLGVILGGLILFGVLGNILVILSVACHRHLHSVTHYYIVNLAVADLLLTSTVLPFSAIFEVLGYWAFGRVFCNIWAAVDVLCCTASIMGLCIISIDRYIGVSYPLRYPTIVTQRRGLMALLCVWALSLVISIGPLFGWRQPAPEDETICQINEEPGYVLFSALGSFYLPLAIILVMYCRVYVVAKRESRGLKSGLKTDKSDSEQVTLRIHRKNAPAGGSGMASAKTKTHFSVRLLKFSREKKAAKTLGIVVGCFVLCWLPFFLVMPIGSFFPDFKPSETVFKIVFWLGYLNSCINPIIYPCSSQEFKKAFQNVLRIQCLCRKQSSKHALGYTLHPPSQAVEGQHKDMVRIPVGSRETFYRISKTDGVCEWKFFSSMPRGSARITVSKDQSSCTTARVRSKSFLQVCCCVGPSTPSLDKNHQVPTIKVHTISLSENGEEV
- method notes: Calcium flux assay (Calcium 6 dye) in cells expressing an α1-AR
- Type: cell-based
- applied conditions: calcium flux, α1A-AR; mean of at least three experiments; read-out: Average PEC50
readout label: EC50

Solved entries (count: 5):
[
  {
    "query smiles": "FC(F)(F)c1cccc(CC2=NCCN2)c1Cl",
    "EC50": "10 to 977 nM"
  },
  {
    "query smiles": "Cc1cc2cccc(CC3=NCCN3)c2o1",
    "EC50": "10 to 977 nM"
  },
  {
    "query smiles": "C[C@@H](O)c1cc(Cl)ccc1CC1=NCCN1",
    "EC50": "> 1000 nM"
  },
  {
    "query smiles": "Cc1cc(F)ccc1CC1=NCCN1",
    "EC50": "10 to 977 nM"
  },
  {
    "query smiles": "Clc1ccc(CC2=NCCN2)c(-c2cccnc2)c1",
    "EC50": "> 1000 nM"
  }
]

// returns reported EC50 for input Clc1cc(CC2=NCCN2)ccc1-c1ncco1
> 1000 nM

// returns reported EC50 for input Cn1nccc1-c1cc(Cl)ccc1CC1=NCCN1
10 to 977 nM

// returns reported EC50 for input C[C@@H](O)c1ccc(CC2=NCCN2)c(Cl)c1
< 9.77 nM

// returns reported EC50 for input Clc1ccc(CC2=NCCN2)c(-c2ccccn2)c1
10 to 977 nM

// returns reported EC50 for input COc1c(CC2=NCCN2)ccc2occc12
10 to 977 nM

// returns reported EC50 for input Cc1c(CC2=NCCN2)cc(Cl)c2[nH]ccc12
< 9.77 nM

// returns reported EC50 for input FC(F)(F)Oc1cccc(CC2=NCCN2)c1Cl
10 to 977 nM

// returns reported EC50 for input Cc1coc(-c2cc(Cl)ccc2CC2=NCCN2)n1
10 to 977 nM

// returns reported EC50 for input FC(F)(F)Cc1cc(Cl)ccc1CC1=NCCN1
> 1000 nM

// returns reported EC50 for input FC(F)c1cc(Cl)ccc1CC1=NCCN1
10 to 977 nM

// returns reported EC50 for input Cc1c(CC2=NCCN2)ccc(Cl)c1-c1ccnn1C
> 1000 nM

// returns reported EC50 for input CCc1c(CC2=NCCN2)ccc(S(=O)(=O)C(F)(F)F)c1Cl
> 1000 nM

// returns reported EC50 for input Clc1ccc(CC2=NCCN2)c(-c2ccon2)c1
10 to 977 nM

// returns reported EC50 for input FC(F)(F)Oc1ccc(Cl)c(CC2=NCCN2)c1
10 to 977 nM

// returns reported EC50 for input CCc1cc(Cl)ccc1CC1=NCCN1
10 to 977 nM

// returns reported EC50 for input Cc1coc2c(Cl)cc(CC3=NCCN3)c(C)c12
< 9.77 nM

// returns reported EC50 for input Clc1ccc(CC2=NCCN2)c(C2CCOCC2)c1
> 1000 nM

// returns reported EC50 for input FC(F)(F)c1ccccc1CC1=NCCN1
> 1000 nM

###

- target under test: UniProt P35348
- method notes: Calcium flux assay (Calcium 6 dye) in cells expressing an α1-AR
- Format: cell-based
- applied conditions: calcium flux, α1A-AR; maximum effect relative to full agonist epinephrine; read-out: Average Emax
# Emax per record follows

[
  {
    "compound": "Cc1c(CC2=NCCN2)ccc(S(=O)(=O)CF)c1Cl [Compound 140]",
    "target under test": "UniProt P35348",
    "Emax": "> 61%"
  },
  {
    "compound": "FC(F)(F)c1ccc(CC2=NCCN2)c(N2CCCCC2)c1 [Compound 69]",
    "target under test": "UniProt P35348",
    "Emax": "21 to 60%"
  },
  {
    "compound": "Cc1c(CC2=NCCN2)ccc(Cl)c1-c1cn[nH]c1 [Compound 17]",
    "target under test": "UniProt P35348",
    "Emax": "< 20%"
  }
]

// returns reported Emax for input Cc1c(CC2=NCCN2)cccc1-c1cn[nH]c1 [Compound 6]
21 to 60%

// returns reported Emax for input Clc1ccc(CC2=NCCN2)c(-c2cccs2)c1 [Compound 28]
> 61%

// returns reported Emax for input Cc1csc(-c2cccc(CC3=NCCN3)c2C)n1 [Compound 8]
< 20%

// returns reported Emax for input CCc1cc(S(=O)(=O)C(F)(F)F)ccc1CC1=NCCN1 [Compound 111]
> 61%

// returns reported Emax for input C[C@H](O)c1cc(Cl)ccc1CC1=NCCN1 [Compound 145]
< 20%

// returns reported Emax for input FC(F)(F)c1ccc(CC2=NCCN2)c(N2CCOCC2)c1 [Compound 68]
< 20%

// returns reported Emax for input Clc1ccc(CC2=NCCN2)c(-c2cccnc2)c1 [Compound 19]
> 61%
